This listing pairs sequences with measured phosphorylation enrichment.
# Tested on: c-Abl (mouse);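 also: 11-residue human phosphosite peptides and single-mutation variants displayed on the E. coli surface, counted by deep sequencing, each peptide's frequency after selection divided by its frequency in the unselected input library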;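 also: frequency after pTyr selection over input frequency; kinase dosed for 20-30% of maximal phosphorylation in three min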
# assay_info: phosphorylation enrichment, bacterial display (enrichment ratio); higher = better substrate or ligand; peptides without Tyr show the background
experimental_endpoint: phosphorylation enrichment

> print(dat)
                        query.sequence  test.value
 1      DRLASYRDKVR [KRT12_Y139_L140R]       0.442
 2                         TENAGYFFRVS        1.15
 3    TLARLYHRDST [LRIG1_Y1029_P1031R]       0.761
 4       KLADIYQAELR [GFAP_Y116_V115I]       0.674
 5            TLEKFYFAFPG [SLC1A1_Y51]        7.49
 6            VVKTVYSLQPP [KNSTRN_Y87]       0.777
 7    CTTIHYNFMWN [TP53_Y234_C238W_YF]        1.09
 8       PNQRRYVYYYS [PTEN_Y174_S170N]       0.841
 9       LTTPTFGDLNH [TUBB_Y222_Y222F]       0.612
10      ANYTEYVATSW [CDKL5_Y171_R175S]       0.812
11           SYTDPYAQPPL [KMT2D_Y2378]       0.666
12              KVGPGYLGSGG [RET_Y826]       0.399
13    RNIQQCNSFVS [PRKAR1A_Y373_Y373C]       0.922
14             TISPYYRQSLF [CRYAA_Y48]       0.617
15      EDEGLYTVRVP [MYOM3_Y343_M344T]       0.737
16        QTEAQYRFIFM [PTPN11_Y511_YF]        1.82
17    LITLVYGCSRQ [TMPRSS6_Y290_S288L]       0.978
18             GVLKEYGVKVL [CPS1_Y529]       0.334
19            MKDLTYASLCF [ALOX5_Y446]        1.78
20            ANYTEYVATRW [CDKL5_Y171]       0.948
21        GDPTEYFSTAI [IGSF22_Y501_YF]       0.745
22       NIKKEYTKMVQ [PMS2_Y181_A182T]       0.502
23    SVMAEYGLFRA [VSX2_Y219_G223R_YF]       0.589
24   FRAVKYLQMVG [AVPR2_Y117_C112Y_YF]       0.629
25          QNVADYMRFLM [RPL5_Y207_YF]        1.42
26         AHDGEYGAEAL [HBA1_Y25_A22D]       0.608
27    LIDGFYRLTED [JAK2_Y373_A377E_YF]       0.974
28     EHLNRYINDTF [TTLL10_Y446_S448N]       0.751
29      TNITEYCRDLI [RECQL_Y492_K487T]        0.81
30            TSNQEYLDLSM [FGFR1_Y766]        1.02
31     TAALWYIFLHT [ENG_Y612_S615L_YF]        1.24
32   ASFGPNTRVQS [FOXL2_Y258_Y258N_YF]       0.525
33       TLPAFYMENFS [GLB1_Y552_G554E]         1.2
34            GPRKAYELSQR [SETX_Y1297]       0.492
35   ARVDTYCRHNY [HLA-DRB1_Y107_A103R]       0.797
36             TGHKGYVAFLE [CARD9_Y76]       0.617
37             SSTASYFEAPG [RFX2_Y108]       0.531
38           KEAQVYQAFKL [SUCLG2_Y343]        15.3
39   FSMGCYEISLE [HMGCL_Y198_G203E_YF]         1.2
40       EDKFMYLEFPQ [PTEN_Y240_F241L]        1.14
41       TINPIHEHVGY [CHN1_Y143_Y143H]        0.57
42     SNFRAYATEPQ [TNNI3_Y29_H34Q_YF]       0.585
43         KYLENYYDLEK [MMP3_Y41_K45E]       0.818
44   FQCKHYACIRQ [TIMP3_Y182_S179C_YF]       0.634
45  PGPPGYCDSSH [COL12A1_Y3043_Q3048H]        1.21
46       DAHFTYSRYPW [LY75_Y888_D884A]        1.19
47             YSPYDYQPCLA [TNS1_Y798]       0.973
48   VHSGTYQVTVC [MYBPC3_Y1043_R1048C]       0.883
49            KSSDVYVSYDY [SORL1_Y136]       0.712
50   TPGPNYCPGFN [USH2A_Y463_R464C_YF]       0.643
51    KGYCGYSYDDI [TMEM230_Y110_R108C]       0.621
52       NDENIYKGLPD [VAV3_Y141_D139N]        1.08
53      RLLRGYDQLAY [HLA-C_Y137_S140L]       0.477
54       MSLPGYKLVTG [GJA1_Y286_P283L]       0.348
55    CTTIHYNFMCF [TP53_Y234_N239Y_YF]       0.683
56           PMQLPYDSTWE [PDGFRB_Y589]        1.12
57      NREGVYTVSAP [TGFBI_Y537_F540S]       0.565

The measurements presented in this section are drawn from the supplement of paper PMC10065799.
